tested on: 287954-098-R-J1 tumor spheroid viability; test: Anticancer human tumor 287954-098-R-J1 patient-derived Ewing sarcoma cell line growth inhibition; conditions: second compound 94.9 pM; first compound 0.0316 µM; active compounds read low; spheroids with HUVEC and MSC
outcome measure: viability, T/C (%)

compound: CC(C)n1c(=O)n(C)c2cnc3cc(F)c(-c4ccc(OCCCN5CCCCC5)nc4)cc3c21 + COc1cc2c(cc1O)CCNC21CSC2c3c(OC(C)=O)c(C)c4c(c3C(COC1=O)N1C(O)C3Cc5cc(C)c(OC)c(O)c5C(C21)N3C)OCO4
outcome measure: viability, T/C
recorded measurement: 14.9
//
compound: COc1ccc([C@@H](O)c2cc(-c3ncnc4cc(N5CCOCC5)ccc34)c(F)cc2Cl)nn1 + COc1cc2c(cc1O)CCNC21CSC2c3c(OC(C)=O)c(C)c4c(c3C(COC1=O)N1C(O)C3Cc5cc(C)c(OC)c(O)c5C(C21)N3C)OCO4
outcome measure: viability, T/C
recorded measurement: 109
//
compound: Cc1cc(C)c(CNC(=O)c2cc(-c3ccc(CN4CCOCC4)cc3)cc3c2cnn3C2CCCC2)c(=O)[nH]1 + COc1cc2c(cc1O)CCNC21CSC2c3c(OC(C)=O)c(C)c4c(c3C(COC1=O)N1C(O)C3Cc5cc(C)c(OC)c(O)c5C(C21)N3C)OCO4
outcome measure: viability, T/C
recorded measurement: 106
//
compound: CC1COCCN1c1cc(-c2ccnn2C)c2ccnc(-c3ccn[nH]3)c2n1 (centres undefined) + COc1cc2c(cc1O)CCNC21CSC2c3c(OC(C)=O)c(C)c4c(c3C(COC1=O)N1C(O)C3Cc5cc(C)c(OC)c(O)c5C(C21)N3C)OCO4
outcome measure: viability, T/C
recorded measurement: 73.7

====

test system: 287954-098-R-J1 tumor spheroid viability; experiment: Anticancer human tumor 287954-098-R-J1 cell line growth inhibition; settings: second compound 0.00949 µM; first compound 0.0949 µM; active compounds read low; spheroids with HUVEC and MSC;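 further: luminescent signal taken as surrogate of viable cell content; spheroids exposed to compound for 7 days before viability readout; 100% = DMSO vehicle control viability and lower means growth inhibition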
outcome measure: viability, T/C (%)

compound: CNCc1ccc(-c2cc(-c3nc(-c4ccc(S(=O)(=O)C(C)C)cc4)cnc3N)on2)cc1 + CC[C@@]1(O)C(=O)OCc2c1cc1n(c2=O)Cc2cc3c(CN(C)C)c(O)ccc3nc2-1
result units: %
recorded measurement: 89.3
--
compound: Cc1sc2c(c1C)C(c1ccc(Cl)cc1)=NC(CC(=O)Nc1ccc(O)cc1)c1nnc(C)n1-2 (centres undefined) + CC[C@@]1(O)C(=O)OCc2c1cc1n(c2=O)Cc2cc3c(CN(C)C)c(O)ccc3nc2-1
result units: %
recorded measurement: 106
--
compound: O=C(c1cc(Cc2n[nH]c(=O)c3ccccc23)ccc1F)N1CCN(C(=O)C2CC2)CC1 + CC[C@@]1(O)C(=O)OCc2c1cc1n(c2=O)Cc2cc3c(CN(C)C)c(O)ccc3nc2-1
result units: %
recorded measurement: 92.9
--
compound: Cn1ncnc1[C@H]1c2n[nH]c(=O)c3cc(F)cc(c23)N[C@@H]1c1ccc(F)cc1 + CC[C@@]1(O)C(=O)OCc2c1cc1n(c2=O)Cc2cc3c(CN(C)C)c(O)ccc3nc2-1
result units: %
recorded measurement: 45.6

====

tested on: 287954-098-R-J1 tumor spheroid viability; assay: Anticancer human tumor 287954-098-R-J1 cell line growth inhibition; details: second compound 0.03 µM; first compound 1 µM; spheroids with HUVEC and MSC; active = viability on the fitted dose curve at most 10% of control; inactive = the rest;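 further: luminescent signal taken as surrogate of viable cell content; spheroids exposed to compound for 7 days before viability readout; 100% = DMSO vehicle control viability and lower means growth inhibition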
Possible outcomes: active, inactive

compound: COc1cc(C)[nH]c(=O)c1CN1CCc2c(Cl)cc(C(OC)C3COC3)c(Cl)c2C1=O (stereo unspecified) + CC[C@@]1(O)C(=O)OCc2c1cc1n(c2=O)Cc2cc3c(CN(C)C)c(O)ccc3nc2-1
assigned label: inactive
//
compound: COc1ccc([C@@H](O)c2cc(-c3ncnc4cc(N5CCOCC5)ccc34)c(F)cc2Cl)nn1 + CC[C@@]1(O)C(=O)OCc2c1cc1n(c2=O)Cc2cc3c(CN(C)C)c(O)ccc3nc2-1
assigned label: active
//
compound: [2H]c1nc(C)nc([2H])c1-c1cc(NC[C@@H](C)c2cccc3c(C(=O)NC)ccnc23)ncn1 + CC[C@@]1(O)C(=O)OCc2c1cc1n(c2=O)Cc2cc3c(CN(C)C)c(O)ccc3nc2-1
assigned label: inactive
//
compound: Cc1cc(C)c(CNC(=O)c2cc(-c3ccc(CN4CCOCC4)cc3)cc3c2cnn3C2CCCC2)c(=O)[nH]1 + CC[C@@]1(O)C(=O)OCc2c1cc1n(c2=O)Cc2cc3c(CN(C)C)c(O)ccc3nc2-1
assigned label: inactive
//
compound: CC(C)n1c(=O)n(C)c2cnc3cc(F)c(-c4ccc(OCCCN5CCCCC5)nc4)cc3c21 + CC[C@@]1(O)C(=O)OCc2c1cc1n(c2=O)Cc2cc3c(CN(C)C)c(O)ccc3nc2-1
assigned label: active
//
compound: CC1COCCN1c1cc(-c2ccnn2C)c2ccnc(-c3ccn[nH]3)c2n1 (stereo unspecified) + CC[C@@]1(O)C(=O)OCc2c1cc1n(c2=O)Cc2cc3c(CN(C)C)c(O)ccc3nc2-1
assigned label: active
